# credit: ChEMBL document CHEMBL2203051

Could you please report measured Ratio Ki for the items listed next?
Organism: Mus musculus
assay: Selectivity ratio of Ki for delta opioid receptor mouse whole brain without cerebellum to Ki for kappa opioid receptor in mouse whole brain without cerebellum

So what does the record say about Ratio Ki for O=C1CC23CCN(CC4CC4)C4C[C@H](O)C1CC42Cc1ccc(O)cc13 (stereo not given in full) ?
8.72

So what does the record say about Ratio Ki for O=C1CC23CCN(CC4CC4)C4C[C@@H](O)C1CC42Cc1ccc(O)cc13 (stereo not given in full) ?
8.9

So what does the record say about Ratio Ki for O=C1CC2N(CC3CC3)CCC34CC(=O)C1CC23Cc1ccc(O)cc14 (stereo not given) ?
7.26

So what does the record say about Ratio Ki for O=C1CC23CCN(CC4CC4)C4CCC1CC42Cc1ccc(O)cc13 (stereo not given) ?
52

So what does the record say about Ratio Ki for O=C1CC23CCN(CC4CC4)C4C=CC1CC42Cc1ccc(O)cc13 (stereo not given) ?
27.2

* * *

Could you please report measured Ki for the items listed next?
assayed-system: Kappa-type opioid receptor (Mus musculus)
Sequence (P33534 whole entry): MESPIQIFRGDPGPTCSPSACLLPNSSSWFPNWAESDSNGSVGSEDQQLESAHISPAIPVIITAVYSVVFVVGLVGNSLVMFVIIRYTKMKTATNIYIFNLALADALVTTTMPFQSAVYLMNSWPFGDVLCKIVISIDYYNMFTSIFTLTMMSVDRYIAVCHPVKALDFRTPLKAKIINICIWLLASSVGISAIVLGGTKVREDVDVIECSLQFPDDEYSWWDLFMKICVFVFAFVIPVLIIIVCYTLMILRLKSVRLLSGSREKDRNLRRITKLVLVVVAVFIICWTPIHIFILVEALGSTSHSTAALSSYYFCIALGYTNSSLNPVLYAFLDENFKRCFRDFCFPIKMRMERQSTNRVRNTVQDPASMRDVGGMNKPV
assay: Displacement of [3H]U-69,593 from kappa opioid receptor in mouse whole brain without cerebellum
Please give a number only; it is taken to be in nM.

Short answer please: Ki, Kappa-type opioid receptor (Mus musculus), entry O=C1CC23CCN(CC4CC4)C4CCC1CC42Cc1ccc(O)cc13 (stereo not given)
0.84

Short answer please: Ki, Kappa-type opioid receptor (Mus musculus), entry O=C1CC2N(CC3CC3)CCC34CC(=O)C1CC23Cc1ccc(O)cc14 (stereo not given)
56.5

Short answer please: Ki, Kappa-type opioid receptor (Mus musculus), entry O=C1CC23CCN(CC4CC4)C4C[C@H](O)C1CC42Cc1ccc(O)cc13 (stereo not given in full)
16.7

Short answer please: Ki, Kappa-type opioid receptor (Mus musculus), entry O=C1CC23CCN(CC4CC4)C4C[C@@H](O)C1CC42Cc1ccc(O)cc13 (stereo not given in full)
7.63

Short answer please: Ki, Kappa-type opioid receptor (Mus musculus), entry O=C1CC23CCN(CC4CC4)C4C=CC1CC42Cc1ccc(O)cc13 (stereo not given)
1.92

* * *

assayed-system: Delta-type opioid receptor (Mus musculus)
Sequence (P32300 whole entry): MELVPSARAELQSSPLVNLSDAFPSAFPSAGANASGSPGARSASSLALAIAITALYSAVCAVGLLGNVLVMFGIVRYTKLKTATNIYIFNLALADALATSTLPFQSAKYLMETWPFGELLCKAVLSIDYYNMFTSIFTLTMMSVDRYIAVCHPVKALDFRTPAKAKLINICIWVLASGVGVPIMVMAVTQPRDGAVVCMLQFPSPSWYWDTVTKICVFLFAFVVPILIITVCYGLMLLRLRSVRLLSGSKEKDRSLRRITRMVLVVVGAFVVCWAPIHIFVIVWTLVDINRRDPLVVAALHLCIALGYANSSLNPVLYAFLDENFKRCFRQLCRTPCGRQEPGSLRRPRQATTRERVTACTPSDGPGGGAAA
assay: Displacement of [3H][…] from delta opioid receptor in mouse whole brain without cerebellum
Kindly apply the following: TRUE if Ki is less than 0.07 µM, FALSE in every other case.

Please indicate whether the reported Ki of O=C1CC23CCN(CC4CC4)C4C=CC1CC42Cc1ccc(O)cc13 (stereo not given) is strictly below 0.07 µM.
TRUE

Please indicate whether the reported Ki of O=C1CC23CCN(CC4CC4)C4C[C@H](O)C1CC42Cc1ccc(O)cc13 (stereo not given in full) is strictly below 0.07 µM.
FALSE

Please indicate whether the reported Ki of O=C1CC2N(CC3CC3)CCC34CC(=O)C1CC23Cc1ccc(O)cc14 (stereo not given) is strictly below 0.07 µM.
FALSE

Please indicate whether the reported Ki of O=C1CC23CCN(CC4CC4)C4C[C@@H](O)C1CC42Cc1ccc(O)cc13 (stereo not given in full) is strictly below 0.07 µM.
TRUE

Please indicate whether the reported Ki of O=C1CC23CCN(CC4CC4)C4CCC1CC42Cc1ccc(O)cc13 (stereo not given) is strictly below 0.07 µM.
TRUE

* * *

assay: Selectivity ratio of Ki for mu opioid receptor in […] to Ki for kappa opioid receptor in mouse whole brain without cerebellum
readout-name: Ratio Ki
Keep it simple and answer with nothing but the number.

So what does the record say about Ratio Ki for O=C1CC23CCN(CC4CC4)C4CCC1CC42Cc1ccc(O)cc13 (stereo not given) ?
3.82

So what does the record say about Ratio Ki for O=C1CC23CCN(CC4CC4)C4C[C@H](O)C1CC42Cc1ccc(O)cc13 (stereo not given in full) ?
4.22

So what does the record say about Ratio Ki for O=C1CC23CCN(CC4CC4)C4C[C@@H](O)C1CC42Cc1ccc(O)cc13 (stereo not given in full) ?
1.72

So what does the record say about Ratio Ki for O=C1CC2N(CC3CC3)CCC34CC(=O)C1CC23Cc1ccc(O)cc14 (stereo not given) ?
3.31

So what does the record say about Ratio Ki for O=C1CC23CCN(CC4CC4)C4C=CC1CC42Cc1ccc(O)cc13 (stereo not given) ?
9.17

* * *

assayed-system: Mu-type opioid receptor (Cavia porcellus)
Sequence (P97266 whole entry): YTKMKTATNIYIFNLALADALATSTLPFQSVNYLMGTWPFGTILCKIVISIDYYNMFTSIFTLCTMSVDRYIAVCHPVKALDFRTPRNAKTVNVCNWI
Kindly apply the following: rule met if Ki is less than 20 nM, rule not met in every other case.

Please indicate whether the reported Ki of O=C1CC23CCN(CC4CC4)C4C=CC1CC42Cc1ccc(O)cc13 (stereo not given) is strictly below 20 nM.
rule met

Please indicate whether the reported Ki of O=C1CC2N(CC3CC3)CCC34CC(=O)C1CC23Cc1ccc(O)cc14 (stereo not given) is strictly below 20 nM.
rule not met

Please indicate whether the reported Ki of O=C1CC23CCN(CC4CC4)C4C[C@@H](O)C1CC42Cc1ccc(O)cc13 (stereo not given in full) is strictly below 20 nM.
rule met

Please indicate whether the reported Ki of O=C1CC23CCN(CC4CC4)C4C[C@H](O)C1CC42Cc1ccc(O)cc13 (stereo not given in full) is strictly below 20 nM.
rule not met

Please indicate whether the reported Ki of O=C1CC23CCN(CC4CC4)C4CCC1CC42Cc1ccc(O)cc13 (stereo not given) is strictly below 20 nM.
rule met
